Cited source: PubChem BioAssay AID1159580

experiment: chemical genetic growth profiling, strain panel (AID 1159580);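 note: tested at 20 µM; growth read once vehicle control cultures reached saturation at 30 °C; 1 = growth at the plate median or of vehicle wells; lower values mean less growth of the strain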; conditions: S. cerevisiae deletion strains, growth OD, locus YLR357W, strain rsc2, active compounds read low
Hit rate of the full screen: of about 5,500 compounds, about 2,000 (36%) were called active. Inconclusive results (about 18%) are left out. The list shows a part of the results.
recordedEndpoint: normalized growth
Give bare numbers.

See these solved cases before continuing.
molecule | val
COc1c(-c2coc3cc4c(cc3c2=O)CC(OC(C)=O)C(C)(C)O4)ccc2c1C=CC(C)(C)O2 (stereo not drawn) | 1.04
C#C[C@]1(O)CCC2C3CCC4=C(CCC(=O)C4)C3CC[C@@]21C (stereo partly drawn) | 1.03
C[C@]12CCC(=O)C=C1CCC1C2[C@@H](O)C[C@@]2(C)C1CC[C@]2(O)C(=O)CO (stereo partly drawn) | 0.957
CNCc1ccccc1 | 1.02
CC1(C)CCC2(C(=O)O)CCC3(C)C(=CCC4C5(C)CCC(O)C(C)(C)C5C(O)CC43C)C2C1 (stereo not drawn) | 1.01
C#C[C@]1(OC(C)=O)CCC2C3CCC4=C/C(=N\O)CCC4C3CC[C@@]21CC (stereo partly drawn) | 0.937
NC(Cc1c[nH]c2ccccc12)C(=O)O (stereo not drawn) | 1.04
C[C@@H]1CC[C@]2(C(=O)O)CC[C@]3(C)C(=CCC4[C@@]5(C)CC[C@H](O)C(C)(C)C5CC[C@]43C)C2[C@H]1C (stereo partly drawn) | 0.975

# return normalized growth for each item in the list
1. O=C(Nc1ccc(C(=O)O)c(O)c1)c1ccccc1
2. NC12CC3CC(CC(C3)C1)C2
3. Nc1c2c(nc3ccccc13)CCCC2O (stereo not drawn)

[A]
1. 1
2. 0.993
3. 0.975

# return normalized growth for each item in the list
1. COc1cc(N)c(Cl)cc1C(=O)NC1CCN(Cc2ccccc2)CC1
2. COC(=O)Nc1nc2ccc(C(=O)c3ccccc3)cc2[nH]1
3. C[C@H]1[C@H](C)CC[C@]2(CO)CC[C@]3(C)C(=CCC4[C@@]5(C)CC[C@H](O)C(C)(C)C5CC[C@]43C)[C@H]12 (stereo partly drawn)

[A]
1. 1.02
2. 0.925
3. 0.999

# return normalized growth for each item in the list
1. O=C(CNC(=O)c1ccc(Cl)cc1)NO
2. COC(=O)Nc1nc2ccc(Sc3ccccc3)cc2[nH]1
3. COc1ccc2c3c([nH]c2c1)C(C)=NCC3
4. CO[C@@]12[C@@H]3NC3CN1C1=C(C(=O)C(N)=C(C)C1=O)[C@@H]2COC(N)=O (stereo partly drawn)
5. CC(C)(C#N)O[C@@H]1O[C@H](CO)[C@@H](O)[C@H](O)[C@H]1O

[A]
1: 1.02; 2: 0.951; 3: 0.991; 4: 0.961; 5: 0.971

# return normalized growth for each item in the list
1. C#C[C@]1(O)CCC2C3CCC4=CC(=O)CC[C@@H]4C3CC[C@@]21C (stereo partly drawn)
2. Nc1c2c(nc3ccccc13)CCCC2
3. CC(C)CC(N(C)C)C1(c2ccc(Cl)cc2)CCC1 (stereo not drawn)
4. Cc1cc(C(C)(C)C)c(O)c(C(C)(C)C)c1

[A]
1: 0.988; 2: 0.994; 3: 1.01; 4: 0.966

----------
experiment: chemical genetic growth profiling, strain panel (AID 1159580);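 note: tested at 20 µM; growth read once vehicle control cultures reached saturation at 30 °C; 1 = growth at the plate median or of vehicle wells; lower values mean less growth of the strain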; conditions: S. cerevisiae deletion strains, growth OD, locus YHR079C, strain IRE1 (second series), active compounds read low
In all, about 5,500 compounds went through this assay and about 2,000 (36%) were called active. Inconclusive results (about 18%) are left out. The list shows a part of the results. Where a SMILES comes first, the peptide text is derived from it. The star is where a group is joined. For = O=C*
recordedEndpoint: normalized growth
Numbers only.

compound | normalized growth
C[C@@H]1CC[C@H]2[C@@H](C)C(O)O[C@@H]3O[C@@]4(C)CC[C@@H]1[C@]32OO4 (some centres undefined) | 0.359
O=c1oc2cc(O)ccc2s1 | 0.942
CNCc1ccccc1 | 0.989
CC(=O)NC(C(=O)O)C(C)(C)SN=O (centres undefined) | 0.999
C/C=C(/C)C(=O)OC1CCC2(C)C3CCC4C5(O)CC(O)C6(O)C(CN7CC(C)CCC7C6(C)O)C5(O)CC42OC13O (centres undefined) | 0.972

# return normalized growth for each item in the list
1. C/C=C(/C)C(=O)O[C@H]1CC[C@@]2(C)[C@@H]3CC[C@H]4[C@]5(O)C[C@H](O)[C@@]6(O)[C@@H](CN7C[C@@H](C)CC[C@H]7[C@@]6(C)O)[C@]5(O)C[C@@]42O[C@]13O
2. C[C@@H]1CC[C@H]2[C@@H](C)C(=O)O[C@@H]3O[C@@]4(C)CC[C@@H]1[C@]32OO4
3. CC1C(=O)OC2C1CCC1(C)C=CC(=O)C3(C)OC213 (centres undefined)
4. CSCCC(NC=O)C(=O)NC(Cc1ccccc1)C(=O)O (stereo not drawn) (For-Met-Phe-OH; configuration not given here)

[A]
1. 0.969
2. 0.89
3. 1.02
4. 1.02
